So I've got a bunch of sequences here, and I need their recombinant barcode read abundance (log10) values.
# PROCEDURE DETAILS: recombinant barcode read abundance after kanamycin selection (control-corrected) (log10(CPM+1)); higher = more efficient recombination; sequences stand for … in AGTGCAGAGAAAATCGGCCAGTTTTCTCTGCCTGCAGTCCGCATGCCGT…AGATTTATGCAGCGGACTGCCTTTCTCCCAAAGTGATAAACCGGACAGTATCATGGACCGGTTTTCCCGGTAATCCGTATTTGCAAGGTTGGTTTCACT; site = the 11-nt target;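 also: IS621 recombinase and bridge RNA in Escherichia coli cells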
Give a plain numeric answer without units written out.

Enquiry: Would you mind telling me what recombinant barcode read abundance (log10) value was observed for GTCTTACCTTGGGTTCTAACCTGTTGCCT (site GTCTTACCTAG) ?
Return: 1.34

Enquiry: Would you mind telling me what recombinant barcode read abundance (log10) value was observed for CATCGGGCTTGGGTTCTAACCTGTTGCAG (site CCTCGGGCTCT) ?
Return: 0.0832

Enquiry: Would you mind telling me what recombinant barcode read abundance (log10) value was observed for TGGTGTACTTGGGTTCTAACCTGTTGCCT (site TGGCGTACTAG) ?
Return: 0.426

Enquiry: Would you mind telling me what recombinant barcode read abundance (log10) value was observed for GTGGAGTCTTGGGTTCTAACCTGTTGCGT (site TATCCTCCTCG) ?
Return: 0.0104

Enquiry: Would you mind telling me what recombinant barcode read abundance (log10) value was observed for AACATTGCTTGGGTTCTAACCTGTTGCCT (site AACACTGCTAG) ?
Return: 0.695

Enquiry: Would you mind telling me what recombinant barcode read abundance (log10) value was observed for GTCGCGGCTTGGGTTCTAACCTGTTGCCT (site GTCGCGGCTAG) ?
Return: 0.418

Enquiry: Would you mind telling me what recombinant barcode read abundance (log10) value was observed for GGCACCGCTTGGGTTCTAACCTGTTGCCT (site GGCACCGCTAG) ?
Return: 0.905

Enquiry: Would you mind telling me what recombinant barcode read abundance (log10) value was observed for CTACAAGCTTGGGTTCTAACCTGTTGCCT (site CTCCAAGCTAG) ?
Return: 0.279

Enquiry: Would you mind telling me what recombinant barcode read abundance (log10) value was observed for GTGTTTGCTTGGGTTCTAACCTGTTGCCT (site GGGTTTGCTAG) ?
Return: 0.0616

Enquiry: Would you mind telling me what recombinant barcode read abundance (log10) value was observed for CCGTCTACTTGGGTTCTAACCTGTTGCTC (site CCGTCTACTCA) ?
Return: 0.209
